tgt: T1, soluble human CD16A (sCD16A) (human, UniProt P08637 17-203)
T1 construct: CD16A truncated just prior to the transmembrane region, expressed in HEK-293; The last seven residues come from vector pCDNA3.1; also called soluble form of human CD16A
protocol: ELISA, captured sCD16A

binder | binding result
hu3G8VH-31/hu3G8VL-1 (antibody, VH fused to human Cγ1 constant region) VH: QITLKESGPTLVKPTQTLTLTCTFSGFSLSTSGVGVGWIRQPPGKALEWLAHIWWDDDKRYSPSLKSRLTISKDTSKNQVVLTMTNMDPVDTATYYCARINPAWFAYWGQGTLVTVSS light: DIVMTQSPDSLAVSLGERATINCKASQSVDFDGDSFMNWYQQKPGQPPKLLIYTTSNLESGVPDRFSGSGSGTDFTLTISSLQAEDVAVYYCQQSNEDPYTFGQGTKLEIKRTVAAPSVFIFPPSDEQLKSGTASVVCLLNNFYPREAKVQWKVDNALQSGNSQESVTEQDSKDSTYSLSSTLTLSKADYEKHKVYACEVTHQGLSSPVTKSFNRGEC | binds
hu3G8VH-27/hu3G8VL-1 (antibody, VH fused to human Cγ1 constant region) VH: QVTLRESGPALVKPTQTLTLTCTFSGFSLSTSGVGVGWIRQPPGKALEWLAHIWWDDDKRYSPSLKSRLTISKDTSKNQVVLTMTNMDPVDTATYYCAKINPAYFDYWGQGTLVTVSS light: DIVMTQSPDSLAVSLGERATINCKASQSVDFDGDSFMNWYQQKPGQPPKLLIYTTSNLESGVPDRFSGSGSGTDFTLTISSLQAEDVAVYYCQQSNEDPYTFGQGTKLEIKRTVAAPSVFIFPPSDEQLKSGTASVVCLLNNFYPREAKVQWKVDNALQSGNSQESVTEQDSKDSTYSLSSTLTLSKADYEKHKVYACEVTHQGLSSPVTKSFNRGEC | binds
